The reported measurements were obtained from the supplement of paper PMC9732359.

Assay: protein stability index of a GFP-peptide fusion (yeast GPS) (PSI 1-4); higher = more stable; sorted into four equal gates, so the index is relative within each strain
Conditions: pdr5∆
measured quantity: protein stability index
# print the numeric value only

Look up protein stability index for this sequence: EEIKTVDPASAPNHSPE [RRP6]
2.96

Also check LASRNKWDDLNEQLTLL [RPN5]
3.4

Also check YTRYLDRIYMLFHFEED [PRP8]
1.4

Also check PFKRKMLLVDIIPSRMG [REC8]
1.77

Also check VGSPLTVSILQESSSLR [POP8]
3.01

Also check HDVLQKLNTLSEILSFD [YML103C/NUP188]
3.2

Also check AKRHRKILRDNIQGITK [HHF1]
3.44

====

I'd appreciate it if you could supply protein stability index values for the items below.
Assay: protein stability index of a GFP-peptide fusion (yeast GPS) (PSI 1-4); higher = more stable; sorted into four equal gates, so the index is relative within each strain
Details: pdr5∆
# print the numeric value only

Look up protein stability index for this sequence: SKKLNLKIHQSHLVVPY [YMR129W/POM152]
1.95

Also check GSSKPAFSFGAKPDEKK [YJL041W/NSP1]
3.18

Also check ILEDYCYFRDFEYCRID [ISW2]
1.35

Also check PGSVEEVDKSKLITTYI [YDL116W/NUP84]
3.33

Also check NGLIISWSNGKITSPIR [RRP42]
2.98

Also check GGGRVDKPLLKAGRAFH [RPL2A]
3.11

Also check SKQQAKGAFQKVAATSR [RPL24A]
2.99

Also check TALEHKVVNGNSADAAY [FAS2]
3.09

Also check TRLPAFERPAVKEEKED [RPC53]
2.71

Also check ENSTSNSKPEKSSDSND [YLR335W/NUP2]
3.32

Also check VPCDRIEKSRLFSEKTI [SNF6]
2.78

Also check SLDLNNLELGGLNMDFL [PGD1]
3.19

Also check SRTLILSILNEIKKVTQ [SIN4]
2.56

Also check FGKKRLDLAGPLLAQLF [RPB2]
1.79

Also check SLSKISQAFDIVAALPI [RPP1]
3.46

Also check DCIIRLPVKWETTTQFK [FAS1]
2.03

Also check EVAKKRSRKTVKAQRPI [RPL24A]
3.29

Also check EARINELLSSLEGKGSL [RPP2B]
2.79

Also check KASTISRGAVSGQKAGL [RPL2A]
2.36

Also check YHNKHMMCDFGTGNNNK [DIB1]
2.86

Also check IQGISKMYSDDTLKDIS [BRN1]
3.35

Also check GLLSQAIGCIERSDLLP [YJR042W/NUP85]
2.37

Also check WYIEKVIRIPMQENDKI [CSI1]
2.78

Also check PTVDEQRQYKVQLLLHI [SNF11]
1.95

Also check EKIWFAISKENLCGDIS [SIR3]
2.44

Also check LTNQQPKNLSTPSTSSN [CSE2]
2.84

Also check LEYMNTARINNRRLFKK [RRI2]
2.21

Also check DFQPTELFDILSTSEDV [IRR1]
2.42

Also check LINLKISPLMKSQYNMV [SRB8]
1.59

Also check PVDITMMENYQNISPVY [PRP8]
1.99

Also check VQEQLSKNRIIVEADEK [RET1]
1.37

Also check LHKRQQFSESTHNDIDS [YJL039C/NUP192]
3.03

Also check FRKIKLRVDEVQGKNLL [RPS1A]
3.48

Also check PLHSGKTSLMDLLVIDS [SNU114]
2.75

Also check DVEENRSEFIESLLNWI [YJR042W/NUP85]
3.08

Also check PTLVRSVISGNLSLYEA [CSN12]
3.05

Also check PPPPPPPGYEIEELDNP [PRP8]
2.98

Also check ADAQIQRETYDSNESDD [YLR335W/NUP2]
3.38

Also check GTLEGHNGWVTSLATSA [ASC1]
1.87

Also check VSISTSVKPHVVEPEHM [SIR4]
2.99

Also check ACSSSGRETILSNFNAD [SIR3]
2.16

Also check MEKKKSSSLSLESFMKS [SNM1]
1.91

Also check IESQNLDLIPHSSSVFK [SRB4]
2.9

Also check IKTRDACPLDNQPWQLA [HRT1]
2.66

Also check KDRFDIDEKSQFVETIV [RPN2]
2.48

Also check RIDAFNALEHKYFTESD [SSN3]
3

Also check KAAFLGSEVRLRDDTLP [COR1]
2.98

Also check YPFDKLESWWLVLGEVS [BRR2]
3.23

Also check EIEDGQDGGVTPYSNES [RPO21]
3.35

Also check PNIADYITAKNNVVINF [PRP8]
1.26

Also check QQKANLLSSSNFEATKK [COR1]
2.5

Also check IKSGVAKLESLLENSVD [MTW1]
3.4

Also check EVVEVQEETVVEQTAEV [RPS12]
3.36

Also check SQVFGVARIYASFNDTF [RPS14A]
1.81

Also check FQQQQQQQQQQQQPQPQ [PGD1]
2.7

Also check DNVSSQQMHEVRKELRG [RPP0]
2.45

Also check MQEKAAHIAKNLINLSI [YCS4]
1.55

Also check TQHEEEEEQDTGESEES [IRR1]
3.29

Also check DSGIGSNGSGIVAAGGG [CSL4]
3.34

Also check KSIRKDTVEEKKEEKLN [SIR4]
3.2

====

Test: protein stability index of a GFP-peptide fusion (yeast GPS) (PSI 1-4); higher = more stable; sorted into four equal gates, so the index is relative within each strain
Conditions: san1∆
Use protein stability index to assign classes; range list: range 1: < 2; range 2: ≥ 2 and < 3; range 3: ≥ 3

Lab note: sort ALDGDLIELLEKLDVSR [YCG1] into the matching protein stability index band.
range 3

Also check IIVENSGTSGDEDVDVL [RPN2]
range 3

Also check PSQFGMLCTADTPEGEA [RET1]
range 2

Also check MLSAHNIIESIANFSRA [YJR042W/NUP85]
range 2

Also check IYRYKYKVMHQIRACKD [PRP8]
range 2

Also check EDHIFFKYIYELILAGA [YDL116W/NUP84]
range 1

Also check FDSELIHLKQKLSESLD [SMC3]
range 3

Also check SIREDILECDLLICIGT [SIR2]
range 2

Also check INLNVDDDILIIRPILG [SRB4]
range 3

Also check STTTSLHVPNLQPPKTS [SMC4]
range 2

Also check PAKVAEEGINKFKKEKF [SRP54]
range 3

Also check LCLMTWKEVMFDPSKDV [CDC53]
range 2

Also check PNCPRPNMSICIFGDAF [RPL1A]
range 1

Also check KDLVTENAYDNPLADAE [PRE4]
range 3

Also check ASGLLRAYLSHSNRCIV [CSN12]
range 1

Also check EKPFNENRFQDTLLLLP [POP4]
range 1

Also check SNFTSIIGPNGSGKSNM [SMC1]
range 3

Also check LKNVNKRAFENFKKFNE [SMC3]
range 1

Also check SFGSKPTGKEEGDGAKA [YJL041W/NSP1]
range 3

Also check ESLVHSALCILKEQELV [BRR2]
range 1

Also check ATDLAGPANNPNEFMQF [PRP8]
range 3

Also check DFELEISWCSLSETNGL [PRE10]
range 2

Also check CSHCGCVYVPNFNASLQ [SNM1]
range 3

Also check RRVNQAIALLTIGAREA [RPS5]
range 2

Also check TLKDYQIKGLQWMVSLF [SNF2]
range 3

Also check ERYYELAFDKLNVPVFQ [ARP7]
range 1

Also check SQPNNTPSFSFGKTTAN [YLR335W/NUP2]
range 2

Also check CISLSGVPNYLVQLEPH [SSN2]
range 2

Also check KGVGRRYSNLVCKKADV [RPS18A]
range 1

Also check ILKRDFELVSDLSYIEF [ECM29]
range 2

Also check TNAKLPNVDLVTALEVL [RGR1]
range 2

Also check IPGLSAGVNNDNTKESK [RTT102]
range 3

Also check VQCPTVIKLAKYPDYFP [ARP9]
range 2

Also check LKVLSGDEGYNEDMVRR [SNF12]
range 3

Also check VPRKFKHFIQGGSFGNR [RPL7A]
range 3

Also check NTTVISDKQRRLLAKDA [DIS3]
range 2

Also check DFKAKYCDSMGRPQRKM [RPB5]
range 3

Also check KRKYDEITHPPSTTDDE [SWI3]
range 3

Also check QHTSFQEAVNSLKGYKI [CSI1]
range 3

Also check MEVLGIEAGRAALYKEV [RPO21]
range 2

Also check NDINISSIENNINNNIN [MED2]
range 2

Also check FLSQGLHVVITLLREVV [CSN12]
range 1

Also check LDPLARVSKDKKSGSLT [FAS2]
range 3

Also check DLSLIVKARHGGCDYIF [CYT1]
range 2

Also check KRQELEEASQQQQLQQN [MED2]
range 2

Also check PTATPSPFRPLEKTSRI [YMR153W/NUP53]
range 2

Also check EQELAHILLTELLAYQF [FAS2]
range 2

Also check RDIEKITSLYALIRRDF [CDC53]
range 1
